- System: BDF1 mice, intracerebral L1210 leukemia, survival T/C
- PROTOCOL_NOTES: NCI In Vivo Anticancer Drug Screen. Data for tumor model L1210 Leukemia (intracerebral) in B6D2F1 (BDF1) mice
- MEASUREMENT_CONDITIONS: endpoint: mean survival time; dose: 60.0 mg/kg/injection; schedule: Q01DX001 (ip); vehicle: saline
Toxic doses and inconclusive results are not listed. How the source made its calls: active means survival T/C of 150% or more; inactive means T/C below 125% in these data.
One label from this list, please: yes = active, no = inactive

| COMPOUND | CLASS_ASSIGNMENT |
| --- | --- |
| O=NN(CCCl)C(=O)NC1CCC(O)CC1 (stereo not given) | yes |
| CN(N=O)C(=O)Nc1c[nH]c(=O)[nH]c1=O | no |
| COc1ccc(NC(=O)N(CCCl)N=O)cc1 | no |
| O=NN(CCCl)C(=O)NC1CCCCC1 | yes |

Would you kindly look at the next entry?
Field: outcome | Entry: O=NN(CCCl)C(=O)NCCCl no

* * *

- System: BDF1 mice, intracerebral L1210 leukemia, survival T/C
- PROTOCOL_NOTES: NCI In Vivo Anticancer Drug Screen. Data for tumor model L1210 Leukemia (intracerebral) in B6D2F1 (BDF1) mice
- MEASUREMENT_CONDITIONS: endpoint: mean survival time; dose: 500.0 mg/kg/injection; schedule: Q01DX001 (ip); vehicle: carboxymethylcellulose (CMC); higher = longer survival
Inconclusive results and toxic doses are left out.
Reported values of T/C for individual entries

Examples with their reported T/C follow.
| COMPOUND | RECORDED_ENDPOINT | REPORTED_VALUE |
| --- | --- | --- |
| CC(Cl)CNC(=O)N(CC(C)Cl)N=O (stereo not given) | T/C | 112 % of control |
| CN(N=O)C(=O)NCCSc1ncnc2nc[nH]c12 | T/C | 121 % of control |
| CCCCn1cnc2c(SC3CCCC3)ncnc21 | T/C | 119 % of control |

Summary: CCn1cnc2c(SC3CCCC3)ncnc21 , BDF1 mice, intracerebral L1210 leukemia, survival T/C, T/C = 108 % of control

Reported T/C (BDF1 mice, intracerebral L1210 leukemia, survival T/C) for entry CN(N=O)C(=O)NCCCCNC(=O)N(C)N=O is 102 % of control

* * *

- System: BDF1 mice, intracerebral L1210 leukemia, survival T/C
- PROTOCOL_NOTES: NCI In Vivo Anticancer Drug Screen. Data for tumor model L1210 Leukemia (intracerebral) in B6D2F1 (BDF1) mice
- MEASUREMENT_CONDITIONS: endpoint: mean survival time; dose: 67.0 mg/kg/injection; schedule: Q01DX001 (ip); vehicle: carboxymethylcellulose (CMC)
Toxic doses and inconclusive results are not listed. The calls were made as follows: active = survival T/C of 150% or more; inactive = T/C below 125% in these data.
Pick one: 1.0 for active, 0.0 for inactive

What did the test return for CCN(N=O)C(N)=O ? 0.0

Kindly provide the recorded test outcome for the following compound: O=NN(CCCl)C(=O)Nc1cccc(Cl)c1 0.0

Recorded test outcome, item COc1ccc(NC(=O)N(C)N=O)cc1 0.0

What did this assay record as the result for O=NN(CCF)C(=O)NC1CCCCC1 ? 1.0

# lookup: test call for O=NN(CCCl)C(=O)N[C@@H]1CCCC[C@H]1NC(=O)N(CCCl)N=O 0.0

Answer briefly: the call reported for O=NN(CCCl)C(=O)CCCCC(=O)N(CCCl)N=O in this assay. 0.0
